Values compiled from patent US7460961B2.

# assayedTarget: T1, C-TRAF2 (residues 262 to 501 of human TRAF2) (human, UniProt Q12933 262-501)
# T1 construct: range 262-501; Expressed by baculovirus; Amine-coupled to a CM5 chip in the BIAcore experiments; also called C-terminal domain of TRAF2; C-TRAF2 (residues 262-501)
# T1 sequence: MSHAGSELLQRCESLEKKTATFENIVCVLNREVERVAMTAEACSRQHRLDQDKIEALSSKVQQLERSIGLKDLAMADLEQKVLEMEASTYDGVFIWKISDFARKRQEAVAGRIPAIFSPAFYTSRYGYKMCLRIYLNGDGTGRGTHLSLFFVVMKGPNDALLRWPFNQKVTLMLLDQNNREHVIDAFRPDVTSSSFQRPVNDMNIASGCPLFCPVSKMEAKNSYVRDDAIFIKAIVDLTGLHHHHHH
# experimentDescription: BIAcore (SPR)
Ends that are not written are not given here.
testReadout: Kd

binder	testValue
SNTAAPVQETLHG-OH (Synthesised by Fmoc solid-phase methods; printed with a free C-terminus (-OH); also called CD40 peptide; CD40-derived peptide) [13-mer peptide derived from CD40 (SNTAAPVQETLHG-OH)]	~1000 µM
